The measured values listed here are drawn from patent US20260272960A1.

- test.protocol: Solubility test in water, methanol and isopropanol
- Format: physicochemical
- conditions: methanol, organic solvent or mixture, methanol; read-out: Solubility, Methanol
measured.attribute: solubility (mg/mL)

Some compounds with recorded solubility:
OCCN1CCC(=C2c3ccc(Cl)cc3CCc3cccnc32)CC1 [Hydroxyethyl desloratadine, hydroxyethyl desloratadine, reference compound] : 27
OCCCCCCN1CCC(=C2c3ccc(Cl)cc3CCc3cccnc32)CC1 [Hydroxyhexyl desloratadine, hydroxyhexyl desloratadine, reference compound] : 15
OCCCN1CCC(=C2c3ccc(Cl)cc3CCc3cccnc32)CC1 [Hydroxypropyl desloratadine, hydroxypropyl desloratadine, reference compound] : 24
O=C1Cc2ccccc2C(=C2CCN(CCCCCOCOP(=O)(O)O)CC2)c2ccsc21 : 38
CN1CCC(=C2c3ccccc3CC(=O)c3sccc32)CC1 : 30

a = OCCCCN1CCC(=C2c3ccc(Cl)cc3CCc3cccnc32)CC1 [Hydroxybutyl desloratadine, hydroxybutyl desloratadine, reference compound]
b = O=C1Cc2ccccc2C(=C2CCN(CCCCOP(=O)([O-])[O-])CC2)c2ccsc21.[Na+].[Na+]
Form field 'greater solubility' accepts a or b ; which applies? State the label of the item chosen. b
(b: 35 mg/mL, a: 22 mg/mL)

P = O=C1Cc2ccccc2C(=C2CCN(COP(=O)(O)O)CC2)c2ccsc21
Q = OCCCCCN1CCC(=C2c3ccc(Cl)cc3CCc3cccnc32)CC1 [Hydroxypentyl desloratadine, hydroxypentyl desloratadine, reference compound]
Pick the one with the larger solubility: P vs Q Please identify the chosen entry by its label. P

###

- test.protocol: Solubility test in water, methanol and isopropanol
- Format: physicochemical
- conditions: water; read-out: Solubility, Water
measured.attribute: solubility (mg/mL)

O=C1Cc2ccccc2C(=C2CCN(CCCCOP(=O)([O-])[O-])CC2)c2ccsc21.[Na+].[Na+] : 476
O=C1Cc2ccccc2C(=C2CCN(COP(=O)([O-])[O-])CC2)c2ccsc21.[Na+].[Na+] : 488
O=C1Cc2ccccc2C(=C2CCN(CCCOP(=O)(O)O)CC2)c2ccsc21 : 404
O=C1Cc2ccccc2C(=C2CCN(CCCCCOCOP(=O)([O-])[O-])CC2)c2ccsc21.[Na+].[Na+] : 473
O=C1Cc2ccccc2C(=C2CCN(CCCCCOP(=O)([O-])[O-])CC2)c2ccsc21.[Na+].[Na+] : 478

###

- test.protocol: Solubility test in water, methanol and isopropanol
- Assay type: physicochemical
- conditions: methanol, organic solvent or mixture, methanol; read-out: Solubility, Methanol
measured.attribute: solubility (mg/mL)

O=C1Cc2ccccc2C(=C2CCN(CCCOCOP(=O)(O)O)CC2)c2ccsc21 : 38
O=C1Cc2ccccc2C(=C2CCN(CCCOP(=O)(O)O)CC2)c2ccsc21 [Compound III-3] : 35
O=C1Cc2ccccc2C(=C2CCN(CCCOP(=O)(O)O)CC2)c2ccsc21 [Compound IV-3] : 38
O=C1Cc2ccccc2C(=C2CCN(CCCCOP(=O)(O)O)CC2)c2ccsc21 : 35
Cc1cncc(CN2CCC(=C3c4ccccc4CC(=O)c4sccc43)CC2)c1 [Rupatifen, rupatifen, reference compound] : 30
O=C1Cc2ccccc2C(=C2CCN(CCCCCOCOP(=O)([O-])[O-])CC2)c2ccsc21.[Na+].[Na+] : 35
O=C1Cc2ccccc2C(=C2CCN(COP(=O)([O-])[O-])CC2)c2ccsc21.[Na+].[Na+] : 35
